Taken from the nanobody polyreactivity screen of Harvey et al. (2022).

test: yeast display, Sf9 membrane polyspecificity reagent, FACS + sequencing; frameworks hold sequencing errors
METRIC: polyreactivity (PSR sort gate)

RECORD SEQUENCE	METRIC	VALUE
QVQLVESGGGLVQAGGSLRLSCAASGLIFRSYAMGWYRQAPGKERELVARISIRGGSTYYADSVKGRFTISRDNAKNTVYLQLNSLKPEVTAVYYCAAVGYFGGYRYDYWGHGTQVTVSS	polyreactivity (PSR sort gate)	high polyreactivity
QVQLVESGGGLVQAGGSLRLSCAASGRTFPYNAMGWYRQAPGKERELVAAITWSGGSTYYADSVKGRFTISRDNAKNTVYLQMNSLKPEDTAVYYCNKDFPVFEYDYWGQGTQVTVSS	polyreactivity (PSR sort gate)	low polyreactivity
QVQLVESGGGLVQAGGSLRLSCAASGLTFNWNAMGWYRQAPGKERELVAAIRSSGGSTYADSVKGRFTISRDNAKNTVYLQMNSLKPEDTAVYYCAARSRVPPAGPRYDYWGQGTQVTVSS	polyreactivity (PSR sort gate)	high polyreactivity
QVQLVESGGGLVQAGGSLRLSCAASGRIFDGNVMGWYRQAPGKERELVAAISRSGVRTYYADSVKGRFTISRDNAKKTVYLQMNSLKPEDTAVYYCAADVYRQFYPFKSDYWGQGTQVTVSS	polyreactivity (PSR sort gate)	high polyreactivity
QVQLVESGGGLVQAGGSLRLSCAASGRIFQANAKGWYRQAPGKERELVAAINSGDSTYYADSVKGRFTISRDNAKNTVYLQMNSLKPEDTAVYYCAADAVFQYYTYYYWGQGTQVTVSS	polyreactivity (PSR sort gate)	low polyreactivity

###

assay: yeast display, Sf9 membrane polyspecificity reagent, FACS + sequencing; frameworks hold sequencing errors
METRIC: polyreactivity (PSR sort gate)

RECORD SEQUENCE	METRIC	VALUE
QVKLVESGGGFLQAGGRLRLSCAASGIIFYYYAMGRYRQAPGKERELVAAISSGGSTYYSDSVKGRFTISRDNAMNTVYLQMNSLKPEDTAVYYCAADPLYTIDIEYSTYGDYDYWGQGTQVTVSS	polyreactivity (PSR sort gate)	low polyreactivity
QVQLVESGGGIVQAGGSLRLSCAASGSIIGPNTMGWYRQAPGKERELVAAIRGGGSTNYADSVKGRFTISRDNAKNTVYLQMNSLKPEDTAVYYCNATWNLFPGVLDRYDYWGQGTQVTVSS	polyreactivity (PSR sort gate)	low polyreactivity
QVQLVESGGGLVQAGGSLRLTCAASGLTFNYYAMGWYRQAPGKERELVAAISSDGRTDYADSVKGRFTISRDNAKNTVYLQMNSLKPEDTAVYYCAASWYRWGKSWRQYDYWGQGTQVNVSS	polyreactivity (PSR sort gate)	low polyreactivity
QVQLVESGGVLVQAGGSLPLSCAASGSIFGSYAMGWSRQAPGKERELVAAIRWSGGSTRYADSVKGRFTISRDIAKNRVYLHMNSLKPEDTAVYYCAAVWRYLGYTSMDYWGQGTQVTVSS	polyreactivity (PSR sort gate)	low polyreactivity
QVQLVESGGGLVQAGGSLRLSCAASGSTFSTYAMGWYRQAPGKERELVAAITSSGGSTYYADSVKGRFTISRDNAKNTVYLQMNSLKPEDTAVYYCAAGRGYWWWYGYDYWGQGTQVTVSS	polyreactivity (PSR sort gate)	low polyreactivity
QVQLVESGGGLVQAGGSLRLSCAASGRIFEDNGMGWYRQAPGKEREFVATISWDGDRTYYADSVKGRFTISRDNAKNTVYLQMNSLKPEDTAVYYCNADLPLWPVRGYEYWGQGTQVTVSS	polyreactivity (PSR sort gate)	low polyreactivity
QVQLVESGGGLVQAGGSLRLICAASGFTFGYNDMGWYRQAPGKERELVATITRSAGRTYYADSVKGRFTISRDNAKNTVYLQMNSLKPEDTAVYYCASSYWDTEPGYREYDYWGQGTQVTVSS	polyreactivity (PSR sort gate)	low polyreactivity
QVQLVESGGGLVQAGGSLRLSCAASGSFGFYVMGWYRQAPGKERELVSAISSVGSTNYADSVKGRFTISRDNAKNTVYFQMNSLKPEDTAVYYCARRYWYPDAFYRYDYWGQGTQVTVSS	polyreactivity (PSR sort gate)	low polyreactivity
QVQLVESGGGLVQAGGSLRLSCAASGSTIEPNSMGWYRQAPGKEREFVAAITTRGGSTFYADSVKGRFTISRDNAKNTVYLQMNSLKPEDTAVYYCAADYYFVDYDYWGQGTQVTVSS	polyreactivity (PSR sort gate)	low polyreactivity
QVELVESGGCLVQARGSLRLSCAGSGSIFYRNAMGWYRQAPGKERELVAAISSDGSTNYADSVKGRFTISRDNAKITVDLQMNSLIPEDTAVYYCAGPWTEILDYWGQGTQVTVSS	polyreactivity (PSR sort gate)	low polyreactivity

###

assay: yeast display, Sf9 membrane polyspecificity reagent, FACS + sequencing; frameworks hold sequencing errors

RECORD SEQUENCE	polyreactivity (PSR sort gate)
QVQLVESGGGLVQAGGSLRLSCAASGITFKPNTMGWYRQAPGKERELVAAIDWSGSSTYYADSVKGRFTISRDNAKNTVYLQMISLKPEDTAVYYCAADDYEYFWSYDYWGQGTQVTVSS	low polyreactivity
QVQLVESGGGLVQAGGSLRLSCAPSGSIYDDYAMGWYRQAPGKERELVAAISSSGTSTYYADSVKGRFTISRDNAKNTVYLQMIRLKPEDTAGYYCAARSAILKSGYLMDYWGQGTLVTVSS	low polyreactivity
QVQLVESGGGLVQAGGSLRLSCAASGSIFDSYAMGWYRQAPGKERELVAGIDSTGDTSYADSVKGRFTISRDNAKNTVYLQMNSLKPEDTAVYYCAKEYPGDSVQASDEPWGMGYWGQGTQVTVSS	low polyreactivity
QVQLVESGGGLVQAGGSLRLSCAASGSTFPHYTMGWYRQAPGKERELVAVISRSGRTYYADSVKGRFTISRDNAKNTVYLQMNSLKPEDTAVYYCAVLVGRLVWSYNHWGQGTQVTVSS	high polyreactivity
QVQLVESGGGLVQAGGSLRLSCAASGSTFSKYAMGWYRQAPGKERELVAAITRTTGRTYYADSVKGRFSISRDNAKNTVYLHMNSLKPEDTAVDYCAARSPYYRAYKYDYWGQGTQVTVSS	high polyreactivity

###

test: yeast display, Sf9 membrane polyspecificity reagent, FACS + sequencing; frameworks hold sequencing errors
METRIC: polyreactivity (PSR sort gate)

RECORD SEQUENCE	METRIC	VALUE
QVQLVESGGGLVQAGGSLRLSCAASGRTFTSNAMGWYRPAPGKERELVAAITQSGGSTYYADSVKGRFTISRDNAKNTVYLQMNSLKPEDTAVYYCNAETTGRTEYNYWGQGTQVTVSS	polyreactivity (PSR sort gate)	low polyreactivity
QVQLVESGGGLVQAGGSLRLRCAASGRIFPLYAMGWYRQAPGKERELVATISYSGSSTYYADSVKGRFTISRDYAKNSVYLQMNSLKPEDTAVFYFNADAFGPPGVEYYYRGQGTQVTVSS	polyreactivity (PSR sort gate)	low polyreactivity
QVQVVESRGGLVQAGGRLRLSCAASGSTFGVNAMGWYRTAPGKERELVAAISYTGGSTYYADSVKGRFTISRDNAKNTVYLQMNSLKAEHTAVSYCAVEVGYTDSPYSYDYWGQGTQVTVSS	polyreactivity (PSR sort gate)	low polyreactivity
QVQLVESGGGLVQAGGSLRLSCAASGSIFSAKTMGWYRQAPGKERELVAAISSSGGRTYYADSVKGRFTISRDHAKNTVYLQMNSLKPEDTAVYYSNARSRYHVTPYSGVTGYDYWGQGTQVTVSS	polyreactivity (PSR sort gate)	high polyreactivity
QVQLVESGGGLVPAGGSLRLSCAASGFIFHGYAIGWYREAPGKEMELVAAISGTGGSTYYADSVKGRFTISRDNAKNTVYLQMNSLKPEDTAVYYCNARRVRSDRRGGDYWGQGTQVTVSS	polyreactivity (PSR sort gate)	high polyreactivity

###

assay: yeast display, Sf9 membrane polyspecificity reagent, FACS + sequencing; frameworks hold sequencing errors
METRIC: polyreactivity (PSR sort gate)

RECORD SEQUENCE	VALUE
QVQLVESGGGLVQAGGSLRLSCAASGGNFYLYAMGWYIQAPGKEREFVAAISSSGGSTNYADSVKGRFTFSRDNAKNTVYLQMNSLKAEDTAVYYCAARWLAFLDLGKTYEYWGQGTHVTVSS	high polyreactivity
QVQLVESGGGLVQAGGSLRLSCAASGFTFGSYAMGWYIQAPGKERELVARISSDGSTNYADSVKGRFTISRDNAKNTVYLQMNSLKPEDTAVYYSARDRKRQADDIGEFDYWGQGTQVTVSS	low polyreactivity
QVQLVESGGGLVQAGGSLRLSCAASGSIFGPYAMGWYRQAPGKDRELVAAISLGGGSTSYADSVKGRFTISRDNAKNTVYIQMNSLKPEDTAVYYCNAEYYSGPYGYNGFDYWGQGTQVTVSS	low polyreactivity
QVQLVESGGGLVQAGGSLRLTCAASGSTSYSNAMGWYRQAPGKERELVAAINRRGDSTYYADSVKGRFTISRDNAKNTVYLQMNSLKPEDTAVYYCNKVVRVYLGRFQYYSWGQGTQVTVSS	high polyreactivity
QVQLVESGGGLVHAGGSLRLSCAASGLTFYYYDMGWYRQAPGKERELVAAITRRGGSTYYADSVKGRFTISRDNAKNTVYLQMNSLKPEDTAVYYCNALSRTVSHEADDYWGQGTHVTVSS	high polyreactivity
QVQLVESGGGLVQAGGSLRLSCAASGRIFASKAMGWYRQAPGKERELVAAITTTGGSTYYADSVKGRFTISRDNAKNTVYLQMNSLKPEDTAVYYCASRAIPRVRRYGSMNYWGQGTQVTVSS	high polyreactivity
QVHLVESGGGLVQAGGSLRLSCAASRSTFVNYAMGWYRQAPGKERELVAGISRSGGSTYYADSVKGRFTISRDNAKNTVYLQMNSLKPDDTAVYYCAKRYGRLTRYDYWGQGTQVNVSS	high polyreactivity
QVQLVESGGGLVQAGGSLRLSCAASGFTFNYYTMGWYRQAPGKERELVAAISGSGVSTYYADSVKGRFTISRDNAKNTVYLQMNSLKPEDTAVYYCNKLFGIYWGQGTQVTVSS	high polyreactivity
QVQLVKSGGGLVQAGGSLRLSCAASGIIFTDYGMGWYRQAPGKERELVAVISRGGTTKYADSVKGRFTISRDNAKNTVYLQMNSLQPEDTAVYYCAARTWAGRWYGLDFWGQGTQVTVSS	high polyreactivity
QVQLVESRGGLVQAGGSLRLSFAASGIIFADYAMGWYRQAPGKERELVAAISSGDSTYYADSVKGRFTISRDNAKNTVYLQMNSLKPEDTAVYYCAARLYRNKYRIAKMNYWGQGTQVTVSS	high polyreactivity
QDQLVESGGGLVQAGGSLPLSCAASGRTISAYAMGWYRQAPGKERELVAAISRRGGSTYYADSVKGRFSISRDNAKNTVYLQLNSLKPEETAVYYCAADVYKQYGYYYWGEGTQVTVSS	high polyreactivity
QVQLVESGGGLVQAGGSLRLSCAASGSTFAYYTMGWYRQAPGKERELVAAISAGGGSTYYADSVKGRFTISRDNAKNTVYLQMNSLKPEDTAVYYCAVRVLIHTNTRRLDYWGQGTQVTVSS	high polyreactivity
QVQLVESGGGLVQAGGSLRLSCAASGRIFQKNAMGWYRQAAGKERELVAAISGSGSTTNYADSVKGRFTISRDNAKNTVYLQMNSLKPEDTAVYYCATGKRGVSGRGYRYVDYDYWGQGTQVTVSS	high polyreactivity
QVQLVESRGGLVQAGGSLRLTCAASGSTFAPNTMGWYRQAPGQERELVARITSSDGSTTYADSVKGRFTISRDNAKTTVYLQMNSLKPEHTAVYYCAADYGRRWGYDYWGQGTQVTVSS	low polyreactivity
QVQLVESGGGLVQAGGSLRLICAASGLTFWVYTMGWYRQAPGKERELVARITSRGASTYYADSVKGRFTISRDNAKNTVYLQMNSLKPEDTAVYYCATDRYRIYPDYDYWGQGTQVTVSS	high polyreactivity
QVQLVESGGGLVQAVGSLLLSCAASGSTFRYNAMGWYRQAPGKEREFVATISWTTGSSYYADSVKGRFTISRDNAKNTVYLQLNSLKPEDTAFYFCAADASLFSDFRDYDYWGQGTQVPVSS	low polyreactivity
QVQLVESGGGLVQAGGSLRLSCAASGSTFGFYAMGGYRQAPGKERELVAVISSGGGTNYADSVKGRFTISRDNAKNTVYLQMNSLKPEDTAVYYCAASRFALSGGYDYWGQGTQVTVSS	low polyreactivity
QVQLVESGGGLVQAGGSLRLSCAASGSTFLVNAMGWYRQAPGKERELVAAITQSGGSTFYADSVKGRFTISRDNEKNTVYLQMNSLKPEDTAVYYWGQGTQVSVSS	low polyreactivity
QVQLVESGGGLVQAGGSLRLICAASGRTFGGYAMGWYRQAHGKERELVAAISDRGTSTYYADSVKGRFTISRDNAKYTVYLQMNSVKPEDTAVYYCAASSARRRMDYWGQGTQVTVSS	high polyreactivity
QVQLVESGGGLVQAGGSLRLSCAASGRTFRYYAMGWYRQAPGKERELVAAINWNGGRTYYADSVKGRFTISRDNAKNTVYLQMNSLKPEDTAVYYCAAYHYRSPVTGDYWGQGTQVTVSS	high polyreactivity
QVQLVESGGGLVQAGGSLRLSCAASGSTFYGNAMGWYRQAPGKERELVAAIRWRGGRTYYADSVKGRFTISRDNAKNTVYLQMNSLKPEDTAVYYCNALPGVSHTQYDRVGYWGQGTQVTVSS	high polyreactivity
